# System: SK-MEL-2 melanoma
# testDetails: NCI-60 one-dose screen, 48 h
# runConditions: 10 µM unless noted
# Method: Growth inhibition of the SK-MEL-2 human tumor cell line is measured as a screen for anti-cancer activity. Cells are grown in 96 well plates and exposed to the test compound for 48 hours. Compounds are tested at a single concentration, which is 10^-5 M for most compounds. The reported endpoint is percent growth (GI% or GIPRCNT), where numbers from 0 - 100% represent growth inhibition, and numbers from -100% - 0 represent cell death. For example, a value of 40 represents 60% growth inhibition. […]
The panel holds about 83,000 compounds, 20% with a hit somewhere; the sample as a whole holds those more often. Calls of active or inactive are those of the source. The calls were made as follows: active = growth percent below 10; inactive = the rest.
Choose the fitting class; nothing outside Yes (active), No (inactive) is accepted.

Answered cases to consult:
- COc1cccc(NC2=CC(=O)C(C)=C(C)C2=O)c1: No
- Cc1cc(=O)oc2cc(OCCCOc3ccc(/C=C/C(=O)Nc4ccc(Cl)cc4)cc3)ccc12: No
- C=C1CC[C@H]2[C@@](C)(CCC3OC(c4ccc(OCc5cn(C6CC(OC(C)=O)C(OC(C)=O)C(COC(C)=O)O6)nn5)cc4)OC[C@]32C)[C@@H]1/C=C/C1=CCOC1=O (some centres undefined): No
- Cc1cc2nc3c4cc(Cl)ccc4n(CC(=S)NCCN(C)C)c3nc2cc1C: No
- COc1ccc(C(=O)/C=C/c2ccc(Oc3nc(NCCO)nc(N4CCOCC4)n3)c(OC)c2)cc1: No

Ask: // outcome(item) with item = N#Cc1c(-c2ccc(F)cc2)nc2c(C#N)c(Nc3ccccc3)nn2c1N
Result: No

Ask: // outcome(item) with item = O=C(CSc1nnc(-c2ccc3nc(-c4ccc(Cl)cc4)[nH]c3c2)o1)Nc1ccc(C(=O)/C=C/c2ccc(Cl)cc2)cc1
Result: No

Ask: // outcome(item) with item = CC(C)Sc1nc(Nc2ccc(S(N)(=O)=O)cc2)c(C#N)c(-c2ccc(F)cc2)n1
Result: No

Ask: // outcome(item) with item = NS(=O)(=O)c1cccc(Nc2nc(SCC(=O)c3ccc(Br)cc3)nc3ccccc23)c1
Result: No

Ask: // outcome(item) with item = CN1CCN(Cc2ccc(NC(=O)c3cncc(C#Cc4cnc5[nH]ncc5c4)c3)cc2C(F)(F)F)CC1
Result: Yes

Ask: // outcome(item) with item = O=C1[C@H]2Cc3c([nH]c4ccccc34)[C@@H](c3ccc(Br)cc3)N2C(=O)CN1C1CCN(Cc2ccccc2)CC1
Result: No

Ask: // outcome(item) with item = CN(C)CCCOc1c2ccc(Cl)cc2nc2c1oc1ccccc12
Result: Yes

Ask: // outcome(item) with item = COc1ccccc1/C=C/C=N/NC1=NC2C(S1)N(C)C(=O)N2C (centres undefined)
Result: No

====

# Tested on: MDA-MB-231 breast
# testDetails: NCI-60 one-dose screen, 48 h (100 = growth as untreated, 0 = no growth, -100 = all killed)
# runConditions: 10 µM unless noted
This is part of a sample that, as a whole, favours compounds with a hit. Of some 83,000 tested, about 20% had one in any assay.
Give growth for every item shown.
Give bare numbers, in %.

Look over these answered cases.
• COc1cc2nc(-c3ccc(Cl)cc3)cc(OCCCNCC3CCCO3)c2cc1OC (stereo not given) = 33.8
• C[C@@H](Nc1c(C#N)cnc2ccc(-c3cnc(N)nc3)cc12)c1ccccc1 = 17.9
• Cc1ccc(C(=O)Nc2cccc(C(F)(F)F)c2)cc1Nc1nc(-c2cnccn2)nc2c1cnn2C = 25.3
• CCOC(=O)c1c(Nc2ccccc2)nn2c(N)c(C#N)c(-c3ccc(F)cc3)nc12 = 78.6
• COc1ccc(-c2nn3c(-c4ccccc4F)nnc3s2)cc1 = 41.1
• O=C(N/N=C/c1ccc([N+](=O)[O-])s1)c1[nH]c2ccc(Br)cc2c1-c1ccccc1 = -24.1
• Clc1ccc(Cc2nnc3sc(-c4cccnc4)nn23)cc1 = 93.6
• O=C(N/N=C/c1ccc[nH]1)c1[nH]c2ccc(Br)cc2c1-c1ccccc1 = 14
• COC1CCN(Cc2ccc3c(NNC(=O)c4cnccn4)nc4cc(F)ccc4n23)C1 (stereo not given) = 19.8

# next compound below
Ask: Would you kindly share the measured growth for CC(C)(C)Nc1nc2c(OCCc3ccccc3)cccn2c1-c1ccccc1Cl ?
Result: -32.6
